assay-name: probe aWnt5a binding to arrayed compounds – biochemical, biotinylated probe, 635/667 nm fluorescence, primary screen (AID 1113);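 also: score merges 667 nm fluorescence intensity with signal-to-noise per printed feature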
assay-conditions: small-molecule microarray, higher = more signal
So basically: composite z-score at -0.05 or higher? That is rule met. Lower than -0.05? That is rule not met.

INSERT INTO results (compound, discrete_label) VALUES
  ('COC(=O)[C@@]1(Cc2ccccc2)[C@H]2c3cc(C(=O)N(C)C)n(CCSC(=N)N)c3C[C@H]2CN1C(=O)c1ccccc1', 'rule met'),
  ('O=C1C2C=CC(C(O)C3CCCCC3)N(n3cnnc3)C2C(=O)N1Cc1ccccc1 (centres undefined)', 'rule met'),
  ('COC(=O)C(CC#Cc1ccc2c(c1)[C@]1(C(=O)N2)[C@H](C(=O)N2CCc3cc(OC)c(OC)cc3C2)[C@H]2C(=O)O[C@H](c3ccccc3)[C@H](c3ccccc3)N2[C@@H]1c1ccccc1OCCO)C(=O)OC', 'rule met');

Exercise: Check the entry `CN(C)CCCC[C@@H]1NC(=O)[C@@H]2C[C@H](C(=O)NCCCCCCNC(=O)CS)[C@H](c3ccc(O)cc3)N2C1=O` : does composite z-score equal or exceed -0.05?
Key: rule not met

Exercise: Check the entry `Cc1ccc(S[C@]2(C(=O)NCc3ccccc3)CC(=O)N(Cc3ccccc3C(F)(F)F)[C@@H]2c2ccc(CO)cc2)cc1` : does composite z-score equal or exceed -0.05?
Key: rule not met

Exercise: Check the entry C=CC1c2cc(O)c(OC)cc2CCN1C (centres undefined) : does composite z-score equal or exceed -0.05?
Key: rule not met

Exercise: Check the entry `C=CCOC(=O)[C@H]1[C@@H]2C(=O)O[C@@H](c3ccccc3)[C@@H](c3ccccc3)N2[C@@H](c2ccc(OCCOC(=O)[C@@H]3C[C@@H]4C(=O)N[C@@H](CCCCNC(C)=O)C(=O)N4[C@@H]3c3cccc(OCCO)c3)cc2)[C@]12C(=O)Nc1ccccc12` : does composite z-score equal or exceed -0.05?
Key: rule not met

Exercise: Check the entry `C=C1C(=O)C=C2CN(C(=O)c3ccccc3)[C@@](Cc3ccc(OC)cc3)(C(=O)OC)[C@@H]12` : does composite z-score equal or exceed -0.05?
Key: rule met

Exercise: Check the entry Cc1ccc(C(C)CC(O)C2C=CC3C(=O)N(C)C(=O)C3N2Nc2ccccc2)o1 (centres undefined) : does composite z-score equal or exceed -0.05?
Key: rule met

Exercise: Check the entry `COCCOC(=O)N1C(=O)[C@@]2(c3ccccc31)[C@H](C(=O)N1CCN(c3ncccn3)CC1)[C@H]1C(=O)O[C@H](c3ccccc3)[C@H](c3ccccc3)N1[C@@H]2c1ccccc1OCCO` : does composite z-score equal or exceed -0.05?
Key: rule met

Exercise: Check the entry N#Cc1ccc(C(O)C2C=CC3C(=O)NC(=O)C3N2Nc2ccc(Cl)cc2Cl)cc1 (centres undefined) : does composite z-score equal or exceed -0.05?
Key: rule met

Exercise: Check the entry NC(=O)N1C(=O)C2C(C1=O)C1C=C(CCCO)C2C(c2ccc(CN3CCCC3)cc2)N1Cc1cc2c(cc1Br)OCO2 (centres undefined) : does composite z-score equal or exceed -0.05?
Key: rule not met

---

Tested on: Plasmodium falciparum Sir2 (PF13_0152, Sir2A)
assay-name: Plasmodium falciparum Sir2A binding compounds – biochemical, small-molecule microarray, 635 nm fluorescence, primary screen (AID 1098);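 also: score merges spot fluorescence intensity with its signal-to-noise ratio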
assay-conditions: fluorescence 635 nm, higher = more signal
measurement-type: composite z-score
Simply state the number, no unit and no words.

Known composite z-score results, listed for orientation:
INSERT INTO results (compound, value_measured) VALUES
  ('C=CCNC(=O)[C@H]1[C@@H]2C(=O)O[C@@H](c3ccccc3)[C@@H](c3ccccc3)N2[C@@H](c2ccccc2OCCO)[C@]12C(=O)N(C(=O)OCCOC)c1ccc(C#Cc3ccc(OC)cc3)cc12', 0.801),
  ('COc1cc(OC)c(C(O)C2C=CC3C(=O)N(c4ccccc4)C(=O)C3N2Nc2ccc(C(C)C)cc2)cc1Br (centres undefined)', 0.891),
  ('O=C1C2C=CC(C(O)c3ccc([N+](=O)[O-])cc3)N(Nc3ccccc3F)C2C(=O)N1c1ccccc1 (centres undefined)', 1.22);

Please turn your attention to the following entry.
Recorded result, `CN(C)CCCNC(=O)[C@@]1(C)c2ccccc2C(=O)N(Cc2ccc(OC(F)(F)F)cc2)[C@H]1c1ccc(CO)cc1` , composite z-score: 1.33

---

assay-name: growth of efflux-deficient E. coli DRC39 – strain DRC39, OD650, 48 h, E. coli filamentation inducers, primary screen (AID 1179);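 also: screen aims at cell division blockers that make cells filament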
assay-conditions: E. coli DRC39 delta-acrAB growth, higher = more signal, called active from +8 up or from −8 down
measurement-type: z-score
Simply state the number, no unit and no words.

Known z-score results, listed for orientation:
INSERT INTO measurements (molecule, value_measured) VALUES
  ('C=CCNC(=O)[C@H]1[C@@H]2C(=O)O[C@@H](c3ccccc3)[C@@H](c3ccccc3)N2[C@@H](c2ccccc2OCCO)[C@]12C(=O)N(C(=O)OCCOC)c1ccc(C#Cc3ccc(OC)cc3)cc12', 0.582),
  ('Cc1ccc(F)cc1S(=O)(=O)N[C@H]1CCN(Cc2ccc(OC(C)C)cc2)C1', -2.48);

Please turn your attention to the following entry.
Recorded result, `C=CCN1C(=O)[C@]2(O[C@H](CCn3cc([C@H](O)c4ccccc4)nn3)[C@@H]([Si](C)(C)c3ccc(OC)cc3)[C@@H]2C)c2cc(NC(=O)c3ccc(OC)cc3)ccc21` , z-score: 0.418

---

assay-name: growth of efflux-deficient E. coli DRC39 – strain DRC39, OD650, 48 h, E. coli filamentation inducers, primary screen (AID 1179);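 also: screen aims at cell division blockers that make cells filament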
assay-conditions: E. coli DRC39 delta-acrAB growth, higher = more signal, called active from +8 up or from −8 down
So basically: z-score at -0.2 or higher? That is t. Lower than -0.2? That is f.

INSERT INTO assay_data (molecule, discrete_label) VALUES
  ('COc1ccc(NN2C(C(O)c3ccc(I)cc3)C=CC3C(=O)N(C4CCCCC4)C(=O)C32)cc1 (centres undefined)', 't'),
  ('O=C1C2C=CC(C(O)C3CCCCC3)N(n3cnnc3)C2C(=O)N1Cc1ccccc1 (centres undefined)', 't'),
  ('COc1ccc(C(=O)Nc2ccc3c(c2)[C@@]2(O[C@H](CCO)[C@@H]([Si](C)(C)c4ccc(OC)cc4)[C@@H]2C)C(=O)N3Cc2ccccc2)cc1', 'f'),
  ('Cc1ccc(N2C(=O)c3ccccc3[C@](C)(C(=O)NCCCN(C)C)[C@@H]2c2ccc(CO)cc2)nc1', 'f'),
  ('COc1ccc([Si](C)(C)[C@H]2[C@H](CC(=O)N3Cc4ccccc4C[C@H]3CO)O[C@@]3(C(=O)N(C)c4c(Br)cc(C)cc43)[C@@H]2C)cc1', 'f'),
  ('Cc1ccc(S[C@]2(C(=O)NC3CC3)CC(=O)N(C(C)C)[C@@H]2c2ccc(CO)cc2I)cc1', 't'),
  ('CC(=O)NCCCC[C@@H]1NC(=O)[C@H]2C[C@@H](C(=O)NCCCCCCNC(=O)CS)[C@@H](c3cccc(OCCO)c3)N2C1=O', 'f'),
  ('Cc1ccc(S[C@]2(C(=O)NCc3ccccc3)CC(=O)N(Cc3ccccc3C(F)(F)F)[C@@H]2c2ccc(CO)cc2)cc1', 't'),
  ('CCOC(=O)C1=CC[C@@H](c2ccc(OC)cc2)N(S(=O)(=O)c2ccc(C)cc2)[C@H]1CC', 't'),
  ('[N-]=[N+]=NCc1ccccc1[C@@H]1OC(c2ccc(OCCCO)cc2)=N[C@]1(Cc1ccccc1N=[N+]=[N-])C(=O)O', 't');

Exercise: Check the entry `C=CCOC(=O)[C@@H]1[C@H]2C(=O)O[C@H](c3ccccc3)[C@H](c3ccccc3)N2[C@H](c2ccc(OCCOC(=O)[C@H]3C[C@H]4C(=O)N[C@@H](CCCCN(C)C)C(=O)N4[C@H]3c3ccc(O)cc3)cc2)[C@@]12C(=O)Nc1ccc(I)cc12` : does z-score equal or exceed -0.2?
Key: t

Exercise: Check the entry `C=C(CCCC)C(=O)CC[C@H](OC(=O)c1ccccc1-c1ccccc1C(=O)O)c1ccc(OCCO)cc1` : does z-score equal or exceed -0.2?
Key: f

---

Reported composite z-score values are given for each entry in this list.
system-tested: Alpha-bungarotoxin (Bungarus multicinctus) (UniProt P60615)
Sequence (P60615 whole entry, looked up): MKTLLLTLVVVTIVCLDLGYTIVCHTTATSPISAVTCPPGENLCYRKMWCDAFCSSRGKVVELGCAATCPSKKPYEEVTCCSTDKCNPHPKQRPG
assay-name: compounds binding labelled alpha-BTX control protein – biochemical, small-molecule microarray, Alexa647 label, 635/667 nm fluorescence, artefact control for SMM control protein annotation, profiling panel (AID 1117)
assay-conditions: alpha-BTX-A647 binding fluorescence, higher = more signal
Simply state the number, no unit and no words.

INSERT INTO results (compound, value_measured) VALUES
  ('CC(C)N1C(=O)c2ccccc2[C@](C)(C(=O)NCC(F)(F)F)[C@@H]1c1ccc(CO)cc1', -0.573),
  ('C=CCN1C(=O)[C@]2(O[C@H](CCn3cc([C@H](O)c4ccccc4)nn3)[C@@H]([Si](C)(C)c3ccc(OC)cc3)[C@@H]2C)c2cc(NC(=O)c3ccc(OC)cc3)ccc21', 0.464),
  ('C=CC[C@@]1(C(=O)N(C)C)N=C(c2ccc(OCCCO)cc2)O[C@@H]1c1ccccc1CN=[N+]=[N-]', 1.35);

Recorded result, C=CCC(OC(C)=O)[C@@H]1[C@@H](N(Cc2cc3ccccc3o2)C(=O)Cc2ccc(OC)cc2)c2cc(OCCCO)ccc2N1C(=O)c1ccc2ccccc2n1 (some centres undefined) , composite z-score: 1.08

Recorded result, `COCCOC(=O)N1C(=O)[C@@]2(c3cc(C#CCNC(N)=O)ccc31)[C@H](C(=O)Nc1nc3ccccc3s1)[C@H]1C(=O)O[C@H](c3ccccc3)[C@H](c3ccccc3)N1[C@@H]2c1ccccc1OCCO` , composite z-score: 0.771

Recorded result, `COc1ccc([Si](C)(C)[C@@H]2[C@@H](CC(=O)N3CCC[C@H]3CO)O[C@]3(C(=O)N(Cc4cccc(N5CCCCC5=O)c4)c4ccccc43)[C@H]2C)cc1` , composite z-score: 1.22

Recorded result, `O=C(NCCN1CCOCC1)[C@@H]1c2ccccc2C(=O)N(Cc2ccc(OC(F)(F)F)cc2)[C@H]1c1ccc(CO)cc1` , composite z-score: 0.0007

Recorded result, `COCCCN1C(=O)[C@@]2(c3ccc([N+](=O)[O-])cc3)CC(=O)N(CC34CC5CC(CC(C5)C3)C4)[C@@H]2c2ccc(CO)cc21` , composite z-score: 0.241

Recorded result, CN1C(=O)C2C(C1=O)C1C=C(CCCO)C2C(C2CC2)N1Cc1cccc(OC(F)(F)F)c1 (centres undefined) , composite z-score: 0.786

Recorded result, `COC(=O)[C@@]1(Cc2ccc(F)cc2)[C@H]2c3cc(C(=O)N(C)C)n(C)c3C[C@H]2CN1C(=O)c1ccccc1` , composite z-score: 0.0278

Recorded result, O=C1C2C=CC(C(O)c3cccs3)N(Nc3ccc([N+](=O)[O-])cc3)C2C(=O)N1c1ccccc1 (centres undefined) , composite z-score: 0.69

Recorded result, `COc1ccc([Si](C)(C)[C@@H]2[C@@H](CC(=O)N(CCO)Cc3ccccc3)O[C@]3(C(=O)N(Cc4ccc(I)cc4)c4ccccc43)[C@H]2C)cc1` , composite z-score: 0.375

Recorded result, OCCCC1=CC(c2ccc(CN3CCCC3)cc2)N(Cc2cccc(OC(F)(F)F)c2)CC1 (centres undefined) , composite z-score: -0.371

Recorded result, `CC(C)NC(=O)[C@@H]1c2ccccc2C(=O)N(Cc2ccc(OC(F)(F)F)cc2)[C@H]1c1ccc(CO)cc1` , composite z-score: 0.589
